target_under_test: S. pyogenes SKKanGAS, kanamycin survival, BacTiterGlo, 6 h
assay_method_text: S. pyogenes SKKanGAS kanamycin growth inhibitors – SKKanGAS strain, luminescence, dose confirmation, streptokinase promoter inhibitor project, dose response (AID 1902);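 also: lower survival reflects blocked streptokinase promoter driving kanamycin resistance gene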
The source made the active and inactive calls.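 The calls were made as follows: active = EC50 no more than a set limit of log units above the highest dose; inactive = the rest.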
Labels: active, inactive

>  <compound>
CCN(CC)CCN(C(=O)CCS(=O)(=O)c1ccccc1)c1nc2cc(C)cc(C)c2s1

>  <target_under_test>
S. pyogenes SKKanGAS, kanamycin survival, BacTiterGlo, 6 h

>  <qualitative_label>
inactive

$$$$
>  <compound>
CC(C)C1OC2c3cccc4cccc(c34)C2N1c1ccccc1 (stereo not given)

>  <target_under_test>
S. pyogenes SKKanGAS, kanamycin survival, BacTiterGlo, 6 h

>  <qualitative_label>
active

$$$$
>  <compound>
Cc1cc(Br)c(OCc2ccc(C(=O)N/N=C3\CC4CC=CC34)cc2)c(Br)c1 (stereo not given)

>  <target_under_test>
S. pyogenes SKKanGAS, kanamycin survival, BacTiterGlo, 6 h

>  <qualitative_label>
active

$$$$
>  <compound>
COc1ccc(S(=O)(=O)N/N=C(/C)c2ccncc2)cc1

>  <target_under_test>
S. pyogenes SKKanGAS, kanamycin survival, BacTiterGlo, 6 h

>  <qualitative_label>
inactive

$$$$
>  <compound>
CCn1ccnc1CN1CCc2c([nH]c3ccccc23)C1C1CCCCC1 (stereo not given)

>  <target_under_test>
S. pyogenes SKKanGAS, kanamycin survival, BacTiterGlo, 6 h

>  <qualitative_label>
active

$$$$

###

target_under_test: S. pyogenes SKKanGAS, kanamycin survival, BacTiterGlo, 6 h
assay_method_text: S. pyogenes SKKanGAS kanamycin growth inhibitors – SKKanGAS strain, luminescence, dose confirmation, streptokinase promoter inhibitor project, dose response (AID 1902);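 also: lower survival reflects blocked streptokinase promoter driving kanamycin resistance gene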
The source made the active and inactive calls.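 How the source made its calls: active means EC50 no more than a set limit of log units above the highest dose; inactive means the rest.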
Possible outcomes: active, inactive

>  <compound>
Cc1cc([N+](=O)[O-])cc(/C=N\NC(=O)C2COc3ccccc3O2)c1O (stereo not given)

>  <qualitative_label>
active

$$$$
>  <compound>
Cc1ccc(/C=C/c2ccc(=O)n(Cc3ccccc3Cl)n2)cc1

>  <qualitative_label>
active

$$$$
>  <compound>
Cc1ccc(C[n+]2c(-c3ccc(C)cc3)cc(-c3ccc(C)cc3)cc2-c2ccc(C)cc2)cc1

>  <qualitative_label>
active

$$$$
>  <compound>
O=C(NC(=S)NNC(=O)c1ccc(Cl)cc1Cl)c1cccnc1

>  <qualitative_label>
active

$$$$
>  <compound>
CCOC(=O)c1ccc(NC(=O)c2nc[nH]c2C(=O)N[C@@H](Cc2ccccc2)C(=O)OC(C)(C)C)cc1

>  <qualitative_label>
active

$$$$
>  <compound>
Cc1ccc(C(=O)N2CCCC(CCC(=O)NCc3ccccc3F)C2)cn1 (stereo not given)

>  <qualitative_label>
inactive

$$$$
>  <compound>
Cc1ccc(N/N=C2\CS(=O)(=O)N(C)c3ccsc32)cc1

>  <qualitative_label>
active

$$$$
>  <compound>
CCOC(=O)Cc1cc(=O)n2[nH]cc(-c3cccc(Br)c3)c2n1

>  <qualitative_label>
active

$$$$
>  <compound>
O=C(CSc1nnc(NC(=O)c2ccccc2)s1)NCC1CCCO1 (stereo not given)

>  <qualitative_label>
inactive

$$$$
>  <compound>
Cc1ccc(C2C(/C=C3/SC(=S)NC3=O)=C(c3cccs3)Oc3ccccc32)cc1 (stereo not given)

>  <qualitative_label>
active

$$$$

Values from PubChem BioAssay AID1902
